test: Solubility in N-methyl pyrrolidone; type: physicochemical; conditions: (B) Under Heating
Would you kindly list Required amount of N-methyl pyrrolidone necessary to dissolve 0.1 g for each of these compounds?

As a guide, the following entries are already answered.
CCn1cc(C(=O)O)c(=O)c2cc3c(cc21)OCO3: 8.0 milliliters
CCn1cc(C(=O)O)c(=O)c2ccc(C)nc21: 6.0 milliliters
C[C@H]1c2cccc(O)c2C(O)=C2C(=O)[C@]3(O)C(O)=C(C(N)=O)C(=O)[C@@H](N(C)C)[C@@H]3[C@@H](O)[C@@H]21: 2.0 milliliters
CCCSc1ccc2nc(NC(=O)OC)[nH]c2c1: 1.0 milliliters

Report Required amount of N-methyl pyrrolidone necessary to dissolve 0.1 g for every entry below.
1. CC(=O)OCC(=O)[C@@]1(O)CC[C@H]2[C@@H]3CCC4=CC(=O)CC[C@]4(C)[C@H]3[C@@H](O)C[C@@]21C [Hydrocortisone-Acetate]
2. C[C@@H]1[C@H](O)[C@@H](C)/C=C/C=C/CC/C=C/C=C/C=C/C=C/C(O[C@H]2O[C@H](C)[C@@H](O)[C@H](N)[C@@H]2O)CC2O[C@](O)(CC(O)C(O)CCC(O)CC(O)CC(O)CC(=O)O[C@H]1C)CC(O)C2C(=O)O (stereo partly shown)

1. 0.2 milliliters
2. 2.0 milliliters

====

test: Solubility in N-methyl pyrrolidone; type: physicochemical; settings: (A) Room Temperature
Structures can show the parent of a compound that is named as a salt.
Rule: true for Required amount of N-methyl pyrrolidone necessary to dissolve 0.1 g not less than 5 milliliters, false for anything less.

// below: answered compounds
CC(=O)OCC(=O)[C@@]1(O)CC[C@H]2[C@@H]3CCC4=CC(=O)CC[C@]4(C)[C@H]3[C@@H](O)C[C@@]21C [Hydrocortisone-Acetate]: false
C[C@H]1c2cccc(O)c2C(O)=C2C(=O)[C@]3(O)C(O)=C(C(N)=O)C(=O)[C@@H](N(C)C)[C@@H]3[C@@H](O)[C@@H]21: true
CCCSc1ccc2nc(NC(=O)OC)[nH]c2c1: false

Is reported Required amount of N-methyl pyrrolidone necessary to dissolve 0.1 g greater than or equal to 5 milliliters here: [H]/N=C(/N)N[C@H]1[C@H](O)[C@@H](O)[C@H](O[C@@H]2O[C@@H](C)[C@](O)(C=O)[C@H]2O[C@@H]2O[C@@H](CO)[C@H](O)[C@@H](O)[C@@H]2NC)[C@@H](N/C(N)=N\[H])[C@@H]1O [Streptomycin Sulfate] true

====

assay: Solubility in N-methyl pyrrolidone; type: physicochemical; conditions: (A) Room Temperature
property: Required amount of N-methyl pyrrolidone necessary to dissolve 0.1 g

CCn1cc(C(=O)O)c(=O)c2ccc(C)nc21 [nalidixic acid]: does not dissolve
CCn1cc(C(=O)O)c(=O)c2cc3c(cc21)OCO3 [oxolinic acid]: does not dissolve
C[C@@H]1[C@H](O)[C@@H](C)/C=C/C=C/CC/C=C/C=C/C=C/C=C/C(O[C@H]2O[C@H](C)[C@@H](O)[C@H](N)[C@@H]2O)CC2O[C@](O)(CC(O)C(O)CCC(O)CC(O)CC(O)CC(=O)O[C@H]1C)CC(O)C2C(=O)O (stereo partly drawn) [Nystatin]: 5.0 milliliters
